Form field: Percent Effect (one value per entry).
System: Trypanosoma cruzi
assayDetails: Trypanosoma cruzi phosphomannomutase and mannose-1-phosphate guanylyltransferase assay
Type: functional
Parameters: scale not given: direction of the effect not stated beside the values
experimentalConditions: 10 µM

| molecule | tgt | Percent Effect, % |
| --- | --- | --- |
| CN(Cc1cccc(Cl)c1)S(=O)(=O)N1CCOCC1 | Trypanosoma cruzi | 4.58 |
| O=C1CC(c2cccs2)c2snc(C(=O)O)c2N1 (stereo unspecified) | Trypanosoma cruzi | 4.76 |
| CC(c1ccc(Cl)cc1)N1CCN(CCNS(C)(=O)=O)CC1 (stereo unspecified) | Trypanosoma cruzi | 3.28 |
| COc1cccc(S(=O)(=O)CCN2CCCN(C(C)=O)CC2)c1 | Trypanosoma cruzi | 6.13 |
| CC(C)CNC(=O)[C@H]1CCS(=O)(=O)[C@@H]2CN(Cc3ccc(Cl)cc3)C[C@H]12 | Trypanosoma cruzi | 1.17 |
| COCc1ccccc1CNc1nnc(C)c(C)c1C#N | Trypanosoma cruzi | -1.39 |
| O=C(NCC1CC1)C1=NOC2(CCN(Cc3ccc4c(c3)OCO4)C2)C1 (stereo unspecified) | Trypanosoma cruzi | -2.51 |
| Cc1nc(C)n(C2CCCN(C(=O)c3ccc(NC4CC4)nc3)C2)n1 (stereo unspecified) | Trypanosoma cruzi | 2.14 |
| Cc1cc2n(n1)CC(CNC1CCN(Cc3ccccc3C)CC1)CN2 (stereo unspecified) | Trypanosoma cruzi | 0.684 |
| CCN(CC(=O)NC(C)C)S(=O)(=O)N1CCCCCC1 | Trypanosoma cruzi | 2.64 |
| COc1ccc(OCC(=O)NS(=O)(=O)c2cc(F)ccc2F)cc1 | Trypanosoma cruzi | -3.28 |

Data provenance: ChEMBL document CHEMBL3988442
